- TARGET_OF_ASSAY: recombinant human adrenergic beta 1 receptors (Homo sapiens, UniProt P08588)
- Construct: purchased Euroscreen
- Sequence (P08588 whole entry): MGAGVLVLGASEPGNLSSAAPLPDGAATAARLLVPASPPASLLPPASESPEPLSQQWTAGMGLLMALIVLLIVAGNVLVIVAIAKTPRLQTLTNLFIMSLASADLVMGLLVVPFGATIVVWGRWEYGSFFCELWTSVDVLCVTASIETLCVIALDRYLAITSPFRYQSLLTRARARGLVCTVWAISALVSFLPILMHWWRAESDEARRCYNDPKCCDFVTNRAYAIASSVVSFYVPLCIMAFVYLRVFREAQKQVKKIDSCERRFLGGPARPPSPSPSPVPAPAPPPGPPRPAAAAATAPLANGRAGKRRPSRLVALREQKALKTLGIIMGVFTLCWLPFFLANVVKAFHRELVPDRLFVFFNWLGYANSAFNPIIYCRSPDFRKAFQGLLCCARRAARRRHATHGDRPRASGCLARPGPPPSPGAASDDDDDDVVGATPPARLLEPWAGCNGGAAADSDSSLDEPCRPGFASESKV
- ASSAY_OVERVIEW: Adrenergic β1 selectivity binding assay ([125I]-Iodocyanopindolol)
- CONDITION: inhibition of [125I]-Iodocyanopindolol binding, human β1 membranes; read-out: β1 bind p IC50 (converted)
- Method: Membranes containing recombinant human adrenergic beta 1 receptors were obtained from Euroscreen. […] Assays were performed in U-bottomed 96-well polypropylene plates. […] Five washes with 250 μL wash buffer (50 mM HEPES, 1 mM EDTA, 120 mM NaCl, pH 7.4) were performed at 4° C. to remove unbound radioactivity. […] The plates were sealed (TopSeal A) and filter-bound radioactivity was measured with a scintillation counter (TopCount, Packard BioScience) using a 3-minute counting protocol. […]
Where a name gives a salt, the structure may show the parent alone.
READOUT: IC50

Give recorded IC50. Cc1nc(-c2cccc(CCOCCC(=O)N(CCNCCc3ccc(O)c4c3OCC(=O)N4)C3CCCCC3)c2)no1 [Example 27, Trifluoroacetic Acid Salt] > 10 µM

Fill in IC50 for record COCCn1cc(-c2cccc(CCOCCC(=O)N(CCNCCc3ccc(O)c4c3OCC(=O)N4)C3CCCCC3)c2)cn1 [Example 36, Trifluoroacetic Acid Salt] > 10 µM

Give recorded IC50. Cn1nnc(-c2cccc(CCOCCC(=O)N(CCNCCc3ccc(O)c4c3OCC(=O)N4)C3CCCCC3)c2)n1 [Example 07, Trifluoroacetic Acid Salt] > 10 µM

Indicate the recorded IC50 value for this compound: Cn1cc(-c2cccc(CCOCCC(=O)N(CCNCCc3ccc(O)c4c3OCC(=O)N4)C3CCCCC3)c2F)cn1 [Example 16, Trifluoroacetic Acid Salt] 6.31 µM

Quickly give me recorded IC50 for CC(C)n1cc(-c2cccc(CCOCCC(=O)N(CCNCCc3ccc(O)c4c3OCC(=O)N4)C3CCCCC3)c2)nn1 [Example 12, Trifluoroacetic Acid Salt] > 10 µM

For the compound CCn1cc(-c2cccc(CCOCCC(=O)N(CCNCCc3ccc(O)c4c3OCC(=O)N4)C3CCCCC3)c2)cn1 [Example 28] , report IC50. > 10 µM

----------
Kindly supply the reported IC50 values for the records listed here.
- TARGET_OF_ASSAY: recombinant human Dopamine Subtype D2s receptors (Homo sapiens, UniProt P14416)
- Construct: purchased Perkin Elmer
- Sequence (P14416 1-414 isoform P14416-2): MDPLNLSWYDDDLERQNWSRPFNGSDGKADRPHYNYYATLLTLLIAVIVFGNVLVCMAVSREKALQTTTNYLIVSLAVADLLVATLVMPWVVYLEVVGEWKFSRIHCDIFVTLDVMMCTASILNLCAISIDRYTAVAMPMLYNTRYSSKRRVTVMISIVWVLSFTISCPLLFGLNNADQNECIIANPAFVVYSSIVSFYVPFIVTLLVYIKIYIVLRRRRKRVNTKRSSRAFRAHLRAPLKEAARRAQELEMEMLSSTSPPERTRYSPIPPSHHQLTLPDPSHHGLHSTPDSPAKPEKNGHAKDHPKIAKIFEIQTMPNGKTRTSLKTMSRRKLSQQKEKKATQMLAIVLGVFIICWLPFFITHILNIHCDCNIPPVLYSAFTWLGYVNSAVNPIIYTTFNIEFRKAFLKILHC
- ASSAY_OVERVIEW: Dopamine D2 selectivity binding assay ([3H]-spiperone)
- CONDITION: inhibition of [3H]-spiperone binding, human D2s membranes; read-out: D2 bind pIC50 (converted)
Where a name gives a salt, the structure may show the parent alone.
Just the number in µM, nothing appended.

Query IC50 for CCn1cc(-c2cccc(CCOCCC(=O)N(CCNCCc3ccc(O)c4c3OCC(=O)N4)C3CCCCC3)c2)nn1 [Example 04, Trifluoroacetic Acid Salt] 6.31

Complete the entry with IC50 for Cc1nc(-c2cccc(CCOCCC(=O)N(CCNCCc3ccc(O)c4c3OCC(=O)N4)C3CCCCC3)c2)[nH]c1C [Example 32] 0.631

----------
- TARGET_OF_ASSAY: recombinant human adrenergic beta 1 receptors (Homo sapiens, UniProt P08588)
- Construct: purchased Euroscreen
- ASSAY_OVERVIEW: Adrenergic β1 selectivity binding assay ([125I]-Iodocyanopindolol)
- CONDITION: inhibition of [125I]-Iodocyanopindolol binding, human β1 membranes; read-out: β1 bind p IC50 (converted)
Where a name gives a salt, the structure may show the parent alone.
Exercise: state measured IC50 for each of the molecules provided.

Find the measured IC50 of CCn1cc(-c2cccc(CCOCCC(=O)N(CCNCCc3ccc(O)c4c3OCC(=O)N4)[C@H](C)C(C)C)c2)cn1 [Example 23, Trifluoroacetic Acid Salt] and report it. > 10 µM

Supply measured IC50 of Cn1cc(-c2cc(F)cc(CCOCCC(=O)N(CCNCCc3ccc(O)c4c3OCC(=O)N4)C3CCCCC3)c2)cn1 [Example 17, Trifluoroacetic Acid Salt] in your reply. 5.01 µM

Indicate its recorded IC50; the molecule in question is Cn1cc(-c2cccc(CCOCCC(=O)N(CCNCCc3ccc(O)c4c3OCC(=O)N4)C3CCCCC3)c2)cn1 > 7.94 µM

Output measured IC50 for this item: CCC[C@@H](C)N(CCNCCc1ccc(O)c2c1OCC(=O)N2)C(=O)CCOCCc1cccc(-c2cnn(C(C)C)c2)c1 [Example 21, Trifluoroacetic Acid Salt] 6.31 µM

Specify IC50 for Cc1nc(-c2cccc(CCOCCC(=O)N(CCNCCc3ccc(O)c4c3OCC(=O)N4)C3CCCCC3)c2)[nH]c1C and stop. 5.01 µM

# return recorded IC50 for entry CC(C)[C@@H](C)N(CCNCCc1ccc(O)c2c1OCC(=O)N2)C(=O)CCOCCc1cccc(-c2cnn(C)c2)c1 [Example 09, Trifluoroacetic Acid Salt] > 10 µM

For the molecule C[C@@H](N(CCNCCc1ccc(O)c2c1OCC(=O)N2)C(=O)CCOCCc1cccc(-c2cnn(C)c2)c1)C(C)(C)C [Example 26, Trifluoroacetic Acid Salt] , give its reported IC50. > 10 µM

For the molecule CCCn1cc(-c2cccc(CCOCCC(=O)N(CCNCCc3ccc(O)c4c3OCC(=O)N4)C3CCCC3)c2)cn1 [Example 18, Trifluoroacetic Acid Salt] , report IC50. > 7.94 µM

Determine from records and report IC50 for Cn1cc(-c2cccc(CCOCCC(=O)N(CCNCCc3ccc(O)c4c3OCC(=O)N4)C3CCCCC3)c2)nn1 [Example 05, Trifluoroacetic Acid Salt] > 7.94 µM

Determine from records and report IC50 for CCn1ccnc1-c1cccc(CCOCCC(=O)N(CCNCCc2ccc(O)c3c2OCC(=O)N3)C2CCCCC2)c1 [Example 29, Trifluoroacetic Acid Salt] > 7.94 µM

Indicate its recorded IC50; the molecule in question is O=C1COc2c(CCNCCN(C(=O)CCOCCc3cccc(-c4cnco4)c3)C3CCCCC3)ccc(O)c2N1 [Example 10, Trifluoroacetic Acid Salt] 6.31 µM

Provide only the value of recorded IC50 for Cc1nc(-c2cccc(CCOCCC(=O)N(CCNCCc3ccc(O)c4c3OCC(=O)N4)C3CCCCC3)c2)cn1C [Example 35, Trifluoroacetic Acid Salt] > 10 µM

----------
Would you mind telling me the reported β2 Int Act of each entry?
- TARGET_OF_ASSAY: Adrenergic β2 (Homo sapiens)
- Construct: Adherent H292 cells were removed from tissue culture flasks; endogenous in cells; host or cells: H292 cells
- ASSAY_OVERVIEW: Adrenergic β2 mediated cAMP production in H292 cells (AlphaScreen cAMP detection)
- Format: cell-based
- CONDITION: Intrinsic Activity, fraction relative to the maximum activity determined for formoterol
Counter-ions that a name gives are not always drawn.

Please report the measured β2 Int Act for O=C1COc2c(CCNCCN(C(=O)CCOCCc3cccc(-c4ncon4)c3)C3CCCCC3)ccc(O)c2N1 [Example 11, Trifluoroacetic Acid Salt] 0.85

Entry Cn1cc(-c2cc(CCOCCC(=O)N(CCNCCc3ccc(O)c4c3OCC(=O)N4)C3CCCCC3)ccc2F)cn1 [Example 13, Trifluoroacetic Acid Salt] needs its β2 Int Act filled in; supply it. 0.85

Entry Cn1nnnc1-c1cccc(CCOCCC(=O)N(CCNCCc2ccc(O)c3c2OCC(=O)N3)C2CCCCC2)c1 [Example 08, Trifluoroacetic Acid Salt] needs its β2 Int Act filled in; supply it. 0.92

----------
- TARGET_OF_ASSAY: Adrenergic β2 (Homo sapiens, UniProt P07550)
- Construct: Adherent H292 cells were removed from tissue culture flasks; endogenous in cells; host or cells: H292 cells
- Sequence (P07550 whole entry): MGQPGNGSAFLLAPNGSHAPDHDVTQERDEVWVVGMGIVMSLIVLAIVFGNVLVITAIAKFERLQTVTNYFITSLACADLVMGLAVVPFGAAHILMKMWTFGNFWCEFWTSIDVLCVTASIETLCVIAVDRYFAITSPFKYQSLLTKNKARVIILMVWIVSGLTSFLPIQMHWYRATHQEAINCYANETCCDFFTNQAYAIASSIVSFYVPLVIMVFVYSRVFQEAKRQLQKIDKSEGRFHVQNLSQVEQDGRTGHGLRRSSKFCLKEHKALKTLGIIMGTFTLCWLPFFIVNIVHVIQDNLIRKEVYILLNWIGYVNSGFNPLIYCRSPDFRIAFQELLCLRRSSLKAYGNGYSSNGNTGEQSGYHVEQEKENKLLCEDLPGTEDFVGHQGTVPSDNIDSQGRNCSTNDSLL
- ASSAY_OVERVIEW: Adrenergic β2 mediated cAMP production in H292 cells (AlphaScreen cAMP detection)
- Format: cell-based
- CONDITION: Intrinsic Activity, fraction relative to the maximum activity determined for formoterol
Counter-ions that a name gives are not always drawn.
READOUT: β2 Int Act
Just the number, please, no unit after it.

Tell me its β2 Int Act on Adrenergic β2 (Homo sapiens, UniProt P07550): O=C1COc2c(CCNCCN(C(=O)CCOCCc3cccc(-c4nn[nH]n4)c3)C3CCCCC3)ccc(O)c2N1 [Example 15, Trifluoroacetic Acid Salt] 0.83

For Adrenergic β2 (Homo sapiens, UniProt P07550), give the measured β2 Int Act of the entry Cc1nc(-c2cccc(CCOCCC(=O)N(CCNCCc3ccc(O)c4c3OCC(=O)N4)C3CCCCC3)c2)cn1C [Example 35, Trifluoroacetic Acid Salt] 1.03

# assay system Adrenergic β2 (Homo sapiens, UniProt P07550): give β2 Int Act of Cc1nc(-c2cccc(CCOCCC(=O)N(CCNCCc3ccc(O)c4c3OCC(=O)N4)C3CCCCC3)c2)no1 [Example 27, Trifluoroacetic Acid Salt] 0.91

Provide β2 Int Act, recorded with Adrenergic β2 (Homo sapiens, UniProt P07550), of Cn1cc(-c2cccc(CCOCCC(=O)N(CCNCCc3ccc(O)c4c3OCC(=O)N4)C3CCCCCC3)c2)nn1 [Example 06, Trifluoroacetic Acid Salt] 0.95

Give the observed β2 Int Act of CCn1cc(-c2cccc(CCOCCC(=O)N(CCNCCc3ccc(O)c4c3OCC(=O)N4)[C@H](C)C(C)(C)C)c2)cn1 [Example 25, Trifluoroacetic Acid Salt] for Adrenergic β2 (Homo sapiens, UniProt P07550). 0.90

Name the value of β2 Int Act reported for Cc1nc(-c2cccc(CCOCCC(=O)N(CCNCCc3ccc(O)c4c3OCC(=O)N4)C3CCCCC3)c2)[nH]c1C [Example 32] when tested on Adrenergic β2 (Homo sapiens, UniProt P07550). 1.00

Report measured β2 Int Act on Adrenergic β2 (Homo sapiens, UniProt P07550); entry: CCCC[C@@H](C)N(CCNCCc1ccc(O)c2c1OCC(=O)N2)C(=O)CCOCCc1cccc(-c2cnn(C)c2)c1 [Example 30, Trifluoroacetic Acid Salt] 0.93

Given Cn1nccc1-c1cccc(CCOCCC(=O)N(CCNCCc2ccc(O)c3c2OCC(=O)N3)C2CCCCC2)c1 [Example 03, Trifluoroacetic Acid Salt] , report its β2 Int Act on Adrenergic β2 (Homo sapiens, UniProt P07550). 0.81

Find the measured β2 Int Act of Cn1ccnc1-c1cccc(CCOCCC(=O)N(CCNCCc2ccc(O)c3c2OCC(=O)N3)C2CCCCC2)c1 [Example 33] with Adrenergic β2 (Homo sapiens, UniProt P07550) as test system. 0.93

Jot down β2 Int Act (Adrenergic β2 (Homo sapiens, UniProt P07550)) of Cn1cc(-c2cccc(CCOCCC(=O)N(CCNCCc3ccc(O)c4c3OCC(=O)N4)C3CCCCCC3)c2)cn1 [Example 31, Trifluoroacetic Acid Salt] . 0.93

Give measured β2 Int Act for O=C1COc2c(CCNCCN(C(=O)CCOCCc3cccc(-c4cnn(CC5CC5)c4)c3)C3CCCC3)ccc(O)c2N1 [Example 19, Trifluoroacetic Acid Salt] (Adrenergic β2 (Homo sapiens, UniProt P07550)). 0.95

Consider the compound CCn1cc(-c2cccc(CCOCCC(=O)N(CCNCCc3ccc(O)c4c3OCC(=O)N4)C3CCCCC3)c2)nn1 [Example 04, Trifluoroacetic Acid Salt] tested on Adrenergic β2 (Homo sapiens, UniProt P07550); state its β2 Int Act. 0.96

Where do the numbers come from? From patent US8017602B2.
